The reported numbers originate from the supplement of paper PMC10567573.

B1: KRT13 (parent)
chain: KTIEELRDKILTATIENNRVILEI

variants of: B1; assay: protein stability index of a GFP-peptide fusion (GPS, HEK-293T) (PSI 1-6); higher = more stable; details: c terminus: a fixed tail appended;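 also: lentivirally expressed fusions sorted by FACS into six bins by GFP to DsRed ratio, PSI derived from sequencing read proportions per bin multiplied by bin number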
This section presents variants with their documented protein stability index values.
property label: protein stability index

[[record]]
seq = "TTIEELRDKILTATIENNRVILEI [K1T]"
value_observed = 2.34

[[record]]
seq = "KTIEELRDKILTNTIENNRVILEI [A13N]"
value_observed = 2.31

[[record]]
seq = "KTIEELRDKILTATIENNRVINEI [L22N]"
value_observed = 2.83

[[record]]
seq = "KTIEELRDKILTATIENNRVIFEI [L22F]"
value_observed = 3.35

[[record]]
seq = "KTIEELRDKILTATIENRRVILEI [N18R]"
value_observed = 3.44

[[record]]
seq = "KTIEELDDKILTATIENNRVILEI [R7D]"
value_observed = 2.25

[[record]]
seq = "KTIEELRDKILTATIENPRVILEI [N18P]"
value_observed = 3.68

[[record]]
seq = "KTIEELRDKILTATLENNRVILEI [I15L]"
value_observed = 2.31

[[record]]
seq = "MTIEELRDKILTATIENNRVILEI [K1M]"
value_observed = 1.88

[[record]]
seq = "KTIEELRYKILTATIENNRVILEI [D8Y]"
value_observed = 2.14

[[record]]
seq = "KTIEELRDKILTRTIENNRVILEI [A13R]"
value_observed = 3.35

